- PROTOCOL DESCRIPTION: Fluorescence titration with NaHS, Bindfit 1:1 analysis and LoD, pH 7.4 10 mM aqueous HEPES buffer
- Type: binding
- CONDITION DETAILS: 10 μM receptors in 10 mM aqueous HEPES buffer solution, pH = 7.4; 1:1 host:guest; errors in brackets
MEASUREMENT NAME: Association constant Ka HS^−

Recorded results for 4 compounds are shown here.
COCCOCCOCCOc1cc(COc2ccc3cc(-n4nnc(-c5cncc(-c6nnn(-c7cc8ccc(OCc9cc(OCCOCCOCCOC)c(OCCOCCOCCOC)c(OCCOCCOCCOC)c9)cc8oc7=O)c6I)c5)c4I)c(=O)oc3c2)cc(OCCOCCOCCOC)c1OCCOCCOCCOC [XB1] : 16500 (1600) M^−1
COCCOCCOCCOc1cc(COc2ccc3cc(-n4cc(CNCc5cn(-c6cc7ccc(OCc8cc(OCCOCCOCCOC)c(OCCOCCOCCOC)c(OCCOCCOCCOC)c8)cc7oc6=O)nn5)nn4)c(=O)oc3c2)cc(OCCOCCOCCOC)c1OCCOCCOCCOC [HB3, reference compound] : NB
COCCOCCOCCOc1cc(COc2ccc3cc(-n4nnc(-c5cc(-c6nnn(-c7cc8ccc(OCc9cc(OCCOCCOCCOC)c(OCCOCCOCCOC)c(OCCOCCOCCOC)c9)cc8oc7=O)c6I)c[n+](C)c5)c4I)c(=O)oc3c2)cc(OCCOCCOCCOC)c1OCCOCCOCCOC.O=S(=O)([O-])C(F)(F)F [XB2] : 158000 (31000) M^−1
COCCOCCOCCOc1cc(COc2ccc3cc(-n4nnc(CNCc5nnn(-c6cc7ccc(OCc8cc(OCCOCCOCCOC)c(OCCOCCOCCOC)c(OCCOCCOCCOC)c8)cc7oc6=O)c5I)c4I)c(=O)oc3c2)cc(OCCOCCOCCOC)c1OCCOCCOCCOC [XB3] : 5600 (530) M^−1

Pending compound:
Lookup: Which Association constant Ka HS^− is listed for COCCOCCOCCOc1cc(COc2ccc3cc(-n4cc(-c5cncc(-c6cn(-c7cc8ccc(OCc9cc(OCCOCCOCCOC)c(OCCOCCOCCOC)c(OCCOCCOCCOC)c9)cc8oc7=O)nn6)c5)nn4)c(=O)oc3c2)cc(OCCOCCOCCOC)c1OCCOCCOCCOC [HB1, reference compound] ?
Found: NB
